Cited source: ChEMBL document CHEMBL1201862

test system: SF-539; assay: NCI tumour cell line growth inhibition, 48 h
Active and inactive are the calls of the source. Rule as the data show it: active = GI50 up to about 1.1 µM and inactive = higher.
Allowed answers: Y for active, N for inactive

# count of solved cases: 10
Cc1c2ccncc2c(C)c2c1[nH]c1ccc(Oc3ccccc3)cc12 | N
NC(CC(=O)O)(Cc1ccccc1)C(=O)O (stereo not drawn) | N
CCOC(=O)C(=NN(C)c1ncccc1N)C(=O)OCC | N
CC(C)(C)c1cc(C(=O)/C=C/c2ccc3c(c2)CCO3)cc(C(C)(C)C)c1O | Y
Cc1cc(C)c2c(O)c(S(=O)(=O)c3ccc(Cl)cc3)c(=O)oc2c1 | N
Cc1ccc(CC(=O)Nc2ccc(NC(=O)CNC(=O)/C=C/c3ccc(-c4ccccc4)cc3)cc2C(=O)c2ccccc2)cc1 | N
CC(=O)OC1C[C@H]2C(OC(=O)c3ccccc3)C3C4(OC(C)=O)COC4C[C@H](OC(C)=O)[C@@]3(C)C(OC(C)=O)[C@H](OC(C)=O)C(=C1C)C2(C)C (stereo partly drawn) | N
OC1CC(O)O[C@H](c2ccccc2)C1 (stereo partly drawn) | N
Cc1ccc2nc(NC(=O)C(=O)CC(=O)c3cccc4ccccc34)sc2c1 | N
COc1nc2nccc-2c2occn12 | N

### Prompt Please share the test call associated with COC1=CC(=O)C2C(C1=O)[C@@H]1c3ccccc3OC(C)(C)[C@H]21 (stereo partly drawn) .
### Response N

### Prompt Please share the test call associated with Cc1cc(C)nc(NS(=O)(=O)c2ccc(Nc3c4ccccc4nc4c(C(=O)N5CCN(CCO)CC5)cccc34)cc2)n1 .
### Response N

### Prompt Please share the test call associated with Cc1c2cc[n+](C)cc2c(C)c2c1[nH]c1ccc(Oc3ccccc3)cc12 .
### Response N

### Prompt Please share the test call associated with Cc1cccc2c1CC(Cc1ccccc1C(=O)O)C2=O (stereo not drawn) .
### Response N

### Prompt Please share the test call associated with CC(=O)NNc1nc(C)c(C(/C=C/c2cccc([N+](=O)[O-])c2)=N/NC(=S)NN)s1 .
### Response N

### Prompt Please share the test call associated with Nc1ccc(C(=O)c2cn(CCN3CCOCC3)c3ccccc23)c2ccccc12 .
### Response N

### Prompt Please share the test call associated with Cc1cc2c(=Cc3ccc(N(C)C)cc3)c3ccccc3n2[n+]1C .
### Response Y

### Prompt Please share the test call associated with Cc1cn([C@@H]2C[C@@H]2CO)c(=O)[nH]c1=O .
### Response N

### Prompt Please share the test call associated with NC(CCC(=O)NC(CSC(=O)N(O)c1ccccc1)C(=O)NCC(=O)O)C(=O)O (stereo not drawn) .
### Response N

### Prompt Please share the test call associated with CC(=O)NC1C(OCc2ccccc2)OC(CO)C(O)C1OCC(=O)NC(C)C(=O)NC(CCC(=O)Nc1ccc2c(c1)CN1C(=O)c3ccccc3C1=N2)C(N)=O (stereo not drawn) .
### Response N

### Prompt Please share the test call associated with COc1ccc(OC)c(NC(=O)C2=C(C)NC(C)=C(C(=O)Nc3cc(OC)ccc3OC)C2c2ccco2)c1 .
### Response N

### Prompt Please share the test call associated with CSc1cc(Cl)c(C)cc1S(=O)(=O)NC(=O)NNc1ccc(C)cc1 .
### Response N

### Prompt Please share the test call associated with C=CCN1C(=O)CS/C1=N\NC(=O)CSc1nc2ccccc2c(=O)n1CC .
### Response N

### Prompt Please share the test call associated with Cc1cc(/N=C/c2ccc(Cl)cc2)n(-c2ccccc2)n1 .
### Response N

* * *

system: BT-549; test: NCI tumour cell line growth inhibition, 48 h
Activity calls are given as the source filed them. Rule as the data show it: active = GI50 up to about 1.1 µM and inactive = higher.
Allowed answers: active, inactive

# count of solved cases: 4
O=C(O)COc1cc(-c2ccccc2)nc2ccc(F)cc12 | inactive
O=C(O)C12CCC(CC1=O)C2 (stereo not given) | inactive
c1ccc(CSc2nnc3c4ccccc4c4ccccc4c3n2)cc1 | inactive
CC(=O)NNc1nc(C)c(C(/C=C/c2cccc([N+](=O)[O-])c2)=N/NC(=S)NN)s1 | inactive

### Prompt Please share the test call associated with CC1=CC(=O)/C(=C/n2c(=S)[nH]c3cc(C)ccc32)C(=O)O1 .
### Response inactive

### Prompt Please share the test call associated with Cc1ccccc1Nc1nc(NNC(=O)Cc2ccccc2)nc(NNC(=O)c2ccncc2)n1 .
### Response inactive

### Prompt Please share the test call associated with CN(C)c1ccc(Cc2cc3c(O)ccc(O)c3cc(Cc3ccc(N(C)C)cc3)c2=O)cc1 .
### Response inactive

### Prompt Please share the test call associated with O=C1/C(=C/c2ccccc2)CN(C(=O)/C=C/c2ccccc2)C/C1=C\c1ccccc1 .
### Response inactive

### Prompt Please share the test call associated with CN1C2CCC1C(CO)C(=O)C2 (stereo not given) .
### Response inactive

### Prompt Please share the test call associated with C[C@]12CC[C@@H]3c4ccc(OS(N)(=O)=O)cc4CC[C@H]3[C@@H]1CCC2=O [EMATE] .
### Response inactive

* * *

system: OVCAR-3; assay: NCI tumour cell line growth inhibition, 48 h
Calls of active or inactive are those of the source. Cut-off read from the data, not from the text of the source: active = GI50 up to about 1.1 µM and inactive = higher.
Allowed answers: 1 for active, -1 for inactive

# count of solved cases: 4
CCN(CC)CCn1c(=O)c2cccnc2n2c3c(=O)n(C)c(=O)n(C)c3nc12 | -1
CCOc1ccc(O)cc1[P+](c1ccccc1)(c1ccccc1)c1ccccc1 | 1
COc1cc2c3c(c1OC)C(=O)C=C3N(S(=O)(=O)c1ccc(C)cc1)CC2 | -1
COC(=O)C1(CCC(=O)N(C)c2ccccc2)NNC2C(=O)N(c3ccccc3)C(=O)C21 (stereo not given) | -1

Now examine the next entry.
### Prompt Please share the test call associated with O=C(Nc1ccc(F)cc1)c1cc2ccc(O)cc2o/c1=N\c1cccc(F)c1 .
### Response -1

* * *

Exercise: for every item that follows, state its recorded GI50.
test system: A549; assay: NCI tumour cell line growth inhibition, 48 h
Activity calls are given as the source filed them. Rule as the data show it: active = GI50 up to about 1.1 µM and inactive = higher.

# return GI50 for each item in the list
1. COC(=O)c1c(-c2ccccc2)sc(-c2cccc3ccccc23)c1C(=O)OC
2. Cc1ccc(C)n2c1nc1ccccc12
3. O=C1C2=Cc3ccccc3CCN2c2ccc([N+](=O)[O-])cc21
4. COc1ccc(/C=C/c2cc(OC)cc(=O)o2)cc1
5. CN1CCN(c2ccc3[nH]c(-c4ccc5[nH]c(CCCc6ccc(N(CCCl)CCCl)cc6)nc5c4)nc3c2)CC1

### Response
1. > 100 µM (inactive)
2. 33 µM (inactive)
3. 31.3 µM (inactive)
4. > 100 µM (inactive)
5. > 100 µM (inactive)

* * *

tested on: DLD-1; assay: NCI tumour cell line growth inhibition, 48 h
Activity calls are given as the source filed them. No stated cut-off is given here; in the data, active = GI50 up to about 1.1 µM and inactive = higher.
Allowed answers: active, inactive

O=C1c2ccsc2C(=O)c2sc(CO)cc21 | active

### Prompt Please share the test call associated with O=c1ncc(F)cn1C1OC(CO)C(O)C1O (configuration not stated) .
### Response inactive

### Prompt Please share the test call associated with CN1CCN(C)C12C=CC=CC21CC1 .
### Response inactive

* * *

test system: EKVX; test: NCI tumour cell line growth inhibition, 48 h
The source made the active and inactive calls. No stated cut-off is given here; in the data, active = GI50 up to about 1.1 µM and inactive = higher.
Allowed answers: active, inactive

# count of solved cases: 4
Clc1ccc(Nc2nn3c(CCCCCCCCc4nnc5sc(Nc6ccc(Cl)cc6)nn45)nnc3s2)cc1 | inactive
CC(=O)NC1C(OCc2ccccc2)OC(CO)C(O)C1OCC(=O)NC(C)C(=O)NC(CCC(=O)NCCCCCC(=O)Nc1ccc2c(c1)CN1C(=O)c3ccccc3C1=N2)C(N)=O (centres undefined) | inactive
CN(C)c1nc(N(C)C)nc(N(C)CN(C)c2nc(N(C)C)nc(N(C)C)n2)n1 | inactive
C[C@H]1[C@H](C)CC[C@]2(C(=O)O)CCC3(COC(=O)/C=C/c4ccc(O)cc4)C(=CCC4[C@@]5(C)CC[C@H](O)C(C)(C)C5CC[C@]43C)[C@H]12 (some centres undefined) | inactive

### Prompt Please share the test call associated with O=S1(=O)CS(=O)(=O)OCCCCCO1 .
### Response inactive

### Prompt Please share the test call associated with NC(CCC(=O)NC(CSC(=O)N(O)c1ccccc1)C(=O)NCC(=O)O)C(=O)O (centres undefined) .
### Response inactive

### Prompt Please share the test call associated with CC(C)(C)c1cc(C(=O)/C=C/c2ccc3c(c2)CCO3)cc(C(C)(C)C)c1O .
### Response active

### Prompt Please share the test call associated with CCOC(=O)C1=C(O)C(=O)c2cc(C)ccc2C1=O .
### Response inactive

### Prompt Please share the test call associated with Cc1ccc(C)n2c1nc1ccccc12 .
### Response inactive

* * *

test system: SK-OV-3; assay: NCI tumour cell line growth inhibition, 48 h
The source made the active and inactive calls. No stated cut-off is given here; in the data, active = GI50 up to about 1.1 µM and inactive = higher. Non-standard residues stand in square brackets, D forms with d. Residues, ends and D or L forms follow the SMILES beside them. *: point of attachment. Ac5c = NC1(C(=O)O)CCCC1; Boc = CC(C)(C)OC(=O)*; tBu = CC(C)(C)*
VALUE KIND: GI50

Previously resolved entries follow.
CCOc1cc(-c2nc3ccccn3c2/N=C/c2cc(Br)ccc2O)ccc1O | 29.2 µM (inactive)
C[C@@H]([C@H]1CC[C@@]2(C)[C@@H]3CC[C@@H]4C(=CC3=CC[C@]12C)CC[C@H](N(C)C)C4(C)C)N(C)C | > 100 µM (inactive)
CC1=C(N(C)C)C(=O)c2nc3n(c2C1=O)CCC3OC(N)=O (centres undefined) | 15.2 µM (inactive)
CC1OC(OC2CCCc3c(O)c4c(c(O)c32)C(=O)c2ccccc2C4=O)CC(N)C1O (centres undefined) | 1.15 µM (inactive)
Cc1c(O)c(=O)ccn1CCN | > 100 µM (inactive)
CN1C(=O)c2cccc3c([N+](=O)[O-])ccc(c23)C1=O | 14.7 µM (inactive)
CCCOC(=O)C1CCC(=O)N1C(=O)C(C)Cl (centres undefined) | > 100 µM (inactive)
CC(OC(C)(C)C)C(NC(=O)C(CCCCNC(=O)OC(C)(C)C)NC(=O)C(Cc1c[nH]c2ccccc12)NC(=O)C(N)Cc1ccccc1)C(=O)NC(Cc1ccccc1)C(=O)NC1(C(=O)O)CCCC1 (centres undefined) (H-FWK(Boc)T(tBu)F[Ac5c]-OH; configuration not given here) | > 100 µM (inactive)

Kindly consider the entry below.
The compound listed as CCCCCCCCCCCCCCCC(=O)OCC(O)C1OC(=O)C(O)=C1O (centres undefined) has a reported GI50 of 35.6 µM (inactive)
